As shown below, each of these compounds has a reported IC50 value.
Biological target: CHO [hCOX-2] (Homo sapiens, UniProt P35354)
Construct: expressed in transfected cells; host or cells: CHO cells, stably transfected with pCDNAIII
Sequence (P35354 18-604): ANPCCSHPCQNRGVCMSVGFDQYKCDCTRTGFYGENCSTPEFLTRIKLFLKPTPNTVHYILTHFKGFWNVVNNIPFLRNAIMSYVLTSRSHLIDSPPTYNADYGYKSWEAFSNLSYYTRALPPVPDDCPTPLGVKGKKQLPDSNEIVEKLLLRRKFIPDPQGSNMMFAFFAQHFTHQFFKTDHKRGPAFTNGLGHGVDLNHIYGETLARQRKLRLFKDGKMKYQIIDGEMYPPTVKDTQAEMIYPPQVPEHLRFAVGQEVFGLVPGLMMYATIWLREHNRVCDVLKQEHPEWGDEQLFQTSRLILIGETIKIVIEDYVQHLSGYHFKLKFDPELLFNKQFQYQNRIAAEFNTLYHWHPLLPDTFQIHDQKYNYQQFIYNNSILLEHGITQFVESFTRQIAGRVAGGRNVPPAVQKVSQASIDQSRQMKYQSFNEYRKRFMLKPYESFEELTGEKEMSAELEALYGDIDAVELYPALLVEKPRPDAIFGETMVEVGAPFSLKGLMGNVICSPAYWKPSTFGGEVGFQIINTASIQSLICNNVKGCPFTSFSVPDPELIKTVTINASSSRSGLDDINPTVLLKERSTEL
Assay: Whole cell assay for COX-2 using CHO transfected cell line (PGE2 synthesis)
Type: cell-based
Settings: Table IV; CHO[hCOX-2] cells, 10 µM AA; read-out: COX-2(IC50, µM) CHO
QUANTITY_MEASURED: IC50 (µM)

STRUCTURE_NOTATION	DATA_VALUE
CC1(C)OC(=O)C(OC2Cc3ccccc3C2)=C1c1ccc(S(C)(=O)=O)cc1	0.03
C[C@]1(CC(F)(F)F)OC(=O)C(Oc2ccc(Br)cc2)=C1c1ccc(S(C)(=O)=O)cc1	0.05
CC[C@@]1(C)OC(=O)C(Oc2ccc(Cl)cn2)=C1c1ccc(S(C)(=O)=O)cc1	0.05
CC[C@@]1(C)OC(=O)C(Oc2ccc(Cl)c(C)c2)=C1c1ccc(S(C)(=O)=O)cc1	0.11
